# subject.of.test: human recombinant SSAO (hSSAO) (Homo sapiens (Human), UniProt Q16853)
# Sequence (Q16853 whole entry): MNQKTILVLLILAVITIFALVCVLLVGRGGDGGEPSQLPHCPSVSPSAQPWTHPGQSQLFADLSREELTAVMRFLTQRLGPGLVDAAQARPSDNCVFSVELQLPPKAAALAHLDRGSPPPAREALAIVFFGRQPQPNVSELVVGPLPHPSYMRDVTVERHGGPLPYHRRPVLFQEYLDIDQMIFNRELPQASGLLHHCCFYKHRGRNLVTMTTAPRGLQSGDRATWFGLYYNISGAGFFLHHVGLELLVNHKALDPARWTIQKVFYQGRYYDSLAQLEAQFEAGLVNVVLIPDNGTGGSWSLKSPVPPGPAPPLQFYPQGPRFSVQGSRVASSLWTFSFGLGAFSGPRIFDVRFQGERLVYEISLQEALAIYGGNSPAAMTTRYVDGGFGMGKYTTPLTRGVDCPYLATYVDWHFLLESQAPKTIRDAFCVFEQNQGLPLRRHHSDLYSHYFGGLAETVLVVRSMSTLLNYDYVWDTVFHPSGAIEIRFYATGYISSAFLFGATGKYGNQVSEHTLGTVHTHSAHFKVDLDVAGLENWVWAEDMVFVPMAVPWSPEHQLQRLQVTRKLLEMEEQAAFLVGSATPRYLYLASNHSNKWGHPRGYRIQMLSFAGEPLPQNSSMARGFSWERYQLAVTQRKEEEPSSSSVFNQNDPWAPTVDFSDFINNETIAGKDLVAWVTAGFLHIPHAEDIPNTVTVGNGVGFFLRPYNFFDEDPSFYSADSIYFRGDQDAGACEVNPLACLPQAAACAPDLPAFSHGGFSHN
# measurement.description: SSAO/VAP-1 in vitro activity, MAO-Glo assay, recombinant SSAO
# measurement.setup: substrate 10 μM, mean ± SEM, read-out: hSSAO Inhib Rel IC50
Where a name gives a salt, the structure may show the parent alone.
measured.attribute: pIC50
The read-out pIC50 is expressed as -log10 of concentration in moles per litre.

Answered cases to consult:
| molecule | measured.attribute | observed.measurement |
| --- | --- | --- |
| Cl.Cl.NC/C(=C\F)COc1cnc(N2CC[C@H](O)C2)nc1 [Example 6, Dihydrochloride] | pIC50 | 7.28 |
| CO[C@H]1CCN(c2ncc(OC/C(=C/F)CN)cn2)C1 [Example 5] | pIC50 | 7.49 |

[ask] Requested read-out: pIC50. Entry: COC1CCN(c2ncc(OC/C(=C/F)CN)cn2)CC1 [Example 3, Dihydrochloride]
[reply] 7.92
